Could you please report measured MIC for the items listed next?
Test system: C. albicans ATCC 10231 (strain A)
Assay: MIC determination by in vitro antifungal assay (CLSI broth dilution)
Type: cell-based, Candida albicans
Details: strain A = C. albicans ATCC 10231; no visible growth, 48 h at 35° C.
Answers are plain numbers, in μg/mL^−1.

O=C(NNc1cccc(F)c1)c1cccc(Br)n1: 0.49
O=C(NNc1cccc(F)c1)c1cccc(F)n1: 0.49
O=C(NNc1ccc(Cl)cc1)c1cnccn1: 0.98
O=C(NNc1ccc(Cl)cc1)c1ncc(F)cc1F: 3.9
O=C(NNc1cccc(F)c1)c1ccc(Br)cn1: 0.49
O=C(NNc1ccc(Cl)cc1)c1ccc(F)cc1F: 1.95

Each molecule below has a reported value. Please supply its MIC.
1. O=C(NNc1cccc(F)c1)c1nc(F)ccc1F
2. O=C(NNc1ccc(Cl)cc1)c1ccccn1
3. O=C(NNc1cccc(Cl)c1)c1ccccn1
4. O=C(NNc1cccc(F)c1)c1ccc(F)cn1

1: 0.98; 2: 0.12; 3: 0.12; 4: 0.49

---

Could you please report measured MIC for the items listed next?
Test system: Aspergillus fumigatus NRRL 163 (Q)
Test: MIC determination by in vitro antifungal assay
Assay type: cell-based
Conditions: Aspergillus fumigatus, NRRL163; strain Q = A. fumigatus NRRL 163; read-out: MIC
Give bare numbers, in mg/L.

// worked examples, MIC included
O=C(NNc1ccc(F)cc1)c1ccccn1: 31.3
O=C(NNc1ccc(F)cc1)c1cccc(F)n1: 31.3

Now examine the next entry.
What value of MIC has been reported for the following compound? COc1ccc(NNC(=O)c2ncc(F)cc2F)cc1
31.3

---

Test system: C. albicans ATCC MYA-2876 (C)
Test: MIC determination by in vitro antifungal assay
Format: cell-based, Candida albicans
Settings: strain C = C. albicans ATCC MYA-2876(S)
Could you please report measured MIC for the items listed next?
Numbers only, in μg/mL^−1.

O=C(NNc1cccc(F)c1)c1ccc(F)cc1F: 3.9

Each compound below has a reported value. Please supply its MIC.
1. O=C(NNc1cccc(F)c1)c1ccccn1
2. O=C(NNc1cccc(F)c1)c1ncc(F)cc1F

1. 0.98
2. 1.95

---

Could you please report measured MIC for the items listed next?
Tested on: C. auris AR Bank #385
Assay: MIC determination by in vitro antifungal assay
Assay type: cell-based, Candida auris
Settings: Candidozyma auris; C. auris AR Bank # 385 (Table 2B); read-out: MIC

// worked examples, MIC included
O=C(NNc1ccc(F)cc1F)c1ncc(F)cc1F [Compound 7g]: 0.98 µg/mL
O=C(NNc1ccc(F)cc1)c1ncc(F)cc1F [Compound 7d]: 0.49 µg/mL
O=C(NNc1cccc(Cl)c1)c1ccc(F)cc1F [Compound 1b]: 3.9 µg/mL
O=C(NNc1ccc(F)cc1)c1nc(F)ccc1F [Compound 8d]: 0.24 µg/mL
O=C(NNc1ccc(F)cc1F)c1ccc(F)cn1 [Compound 3g]: 0.49 µg/mL

Each compound below has a reported value. Please supply its MIC.
1. O=C(NNc1ccc(F)cc1)c1cccc(F)n1 [Compound 5d]
2. COc1cccc(NNC(=O)c2cccc(F)n2)c1 [Compound 5c]
3. O=C(NNc1ccc(F)cc1F)c1cccc(F)n1 [Compound 5g]

["0.49 µg/mL", "0.98 µg/mL", "3.9 µg/mL"]

Each compound below has a reported value. Please supply its MIC.
1. O=C(NNc1ccc(F)cc1)c1cccc(Br)n1 [Compound 6d]
2. O=C(NNc1ccc(F)cc1)c1ccc(Br)cn1 [Compound 4d]
3. COc1ccc(NNC(=O)c2nc(F)ccc2F)cc1 [Compound 8f]
4. O=C(NNc1cc(Cl)cc(Cl)c1)c1ccc(F)cc1F [Compound 1j]
5. COc1ccc(NNC(=O)c2ncc(F)cc2F)cc1 [Compound 7f]

["0.98 µg/mL", "1.95 µg/mL", "0.49 µg/mL", "31.3 µg/mL", "0.49 µg/mL"]

What value of MIC has been reported for the following compound? O=C(NNc1ccc(F)cc1F)c1nc(F)ccc1F [Compound 8g]
0.49 µg/mL

---

Could you please report measured MIC for the items listed next?
Tested on: Aspergillus fumigatus NRRL 163 (Q)
Assay: MIC determination by in vitro antifungal assay
Assay type: cell-based
Details: Aspergillus fumigatus, NRRL163; strain Q = A. fumigatus NRRL 163; read-out: MIC
Answers are plain numbers, in µg/mL.

// worked examples, MIC included
COc1ccc(NNC(=O)c2nc(F)ccc2F)cc1: 31.3
O=C(NNc1ccc(F)cc1)c1nc(F)ccc1F: 31.3
COc1cccc(NNC(=O)c2cnccn2)c1: 15.6
COc1cccc(NNC(=O)c2ccc(Br)cn2)c1: 15.6

Form entry - test system: Aspergillus fumigatus NRRL 163 (Q); read-out: MIC; molecule: COc1ccc(NNC(=O)c2cnccn2)cc1
31.3

---

Could you please report measured MIC for the items listed next?
Tested on: C. auris AR Bank #382
Experiment: MIC determination by in vitro antifungal assay
Assay type: cell-based, Candida auris
Details: Candidozyma auris; C. auris AR Bank # 382 (Table 2B); read-out: MIC
Method: The antifungal agent amphotericin B (AmB) was purchased from VWR (Radnor PA, USA). AmB was dissolved in DMSO at a final concentration of 5 mg/mL and was stored at −20° C., protected from light. Candida albicans American Type Culture Collection (ATCC) 10231 (strain A), C. albicans ATCC 64124 (B), and C. albicans ATCC MYA-2876 (C) were obtained from Utah State University. […]
Answers are plain numbers, in µg/mL.

// worked examples, MIC included
O=C(NNc1ccc(F)cc1F)c1ncc(F)cc1F: 1.95
O=C(NNc1ccc(F)cc1)c1cccc(Br)n1: 0.98

Now examine the next entry.
What value of MIC has been reported for the following compound? O=C(NNc1ccc(F)cc1)c1cccc(F)n1
0.98

---

Could you please report measured MIC for the items listed next?
System: A. fumigatus NRRL 5109 (R)
Assay: MIC determination by in vitro antifungal assay
Type: cell-based, Aspergillus fumigatus
Conditions: Aspergillus fumigatus, NRRL5109; strain R = A. fumigatus NRRL 5109; read-out: MIC

// worked examples, MIC included
COc1ccc(NNC(=O)c2nc(F)ccc2F)cc1 [Compound 8f]: 15.6 mg/L
COc1ccc(NNC(=O)c2ccc(F)cc2F)cc1 [Compound 1f]: > 31.3 mg/L
O=C(NNc1ccc(F)cc1)c1cccc(F)n1 [Compound 5d]: 15.6 mg/L
O=C(NNc1cc(F)cc(F)c1)c1ccccn1 [Compound 2i]: ≤ 0.06 mg/L
COc1ccc(NNC(=O)c2ncc(F)cc2F)cc1 [Compound 7f]: 31.3 mg/L

What value of MIC has been reported for the following molecule? O=C(NNc1ccc(F)cc1F)c1cccc(Br)n1 [Compound 6g]
31.3 mg/L

---

Tested on: Candida lusitaniae AR Bank #398
Assay: MIC determination by in vitro antifungal assay
Format: cell-based
Conditions: Candida strain AR Bank #398
measured_attribute: MIC
Value and unit, in that order.

// worked examples, MIC included
C[C@@H]1[C@H](O)[C@@H](C)/C=C/C=C/C=C/C=C/C=C/C=C/C=C/[C@H](O[C@@H]2O[C@H](C)[C@@H](O)[C@H](N)[C@@H]2O)C[C@@H]2O[C@](O)(C[C@@H](O)C[C@@H](O)[C@H](O)CC[C@@H](O)C[C@@H](O)CC(=O)O[C@H]1C)C[C@H](O)[C@H]2C(=O)O [AmB, amphotericin B, reference compound]: 3.9 μg/mL^−1
COc1cccc(NNC(=O)c2ccccn2)c1: 1.95 μg/mL^−1
O=C(NNc1cccc(Cl)c1)c1ccccn1: 0.98 μg/mL^−1
O=C(NNc1ccc(Cl)cc1)c1ccccn1: 0.98 μg/mL^−1
O=C(NNc1ccc(Cl)cc1)c1cnccn1: 3.9 μg/mL^−1

Now examine the next entry.
What value of MIC has been reported for the following molecule? O=C(NNc1cccc(F)c1)c1ccccn1
0.98 μg/mL^−1

---

Test system: Candida lusitaniae AR Bank #398
Assay: MIC determination by in vitro antifungal assay
Assay type: cell-based
Conditions: Clavispora lusitaniae; Candida strain AR Bank #398; read-out: MIC
measured_attribute: MIC (µg/mL)
One number for each entry, in µg/mL.

Each compound below has a reported value. Please supply its MIC.
1. O=C(NNc1cc(F)ccc1F)c1ccccn1 [Compound 2h]
2. COc1ccc(NNC(=O)c2ccccn2)cc1 [Compound 2f]
3. O=C(NNc1ccc(F)cc1F)c1ccccn1 [Compound 2g]
4. COc1ccc(NNC(=O)c2cnccn2)cc1 [Compound 9f]

[0.49, 0.98, 1.95, 0.98]

Each compound below has a reported value. Please supply its MIC.
1. O=C(NNc1cc(Cl)cc(Cl)c1)c1ccccn1 [Compound 2j]
2. O=C(NNc1cc(F)cc(F)c1)c1ccccn1 [Compound 2i]
3. COc1cccc(NNC(=O)c2cnccn2)c1 [Compound 9c]
4. O=C(NNc1ccc(F)cc1)c1ccccn1 [Compound 2d]
5. O=C(NNc1ccc(F)cc1F)c1cnccn1 [Compound 9g]
6. O=C(NNc1cccc(Cl)c1)c1cnccn1 [Compound 9b]

1: 3.9; 2: 0.49; 3: 1.95; 4: 1.95; 5: 3.9; 6: 0.49
